- Test system: A549
- Protocol text: NCI tumour cell line growth inhibition, 48 h
Calls of active or inactive are those of the source. No stated cut-off is given here; in the data, active = GI50 up to about 1.1 µM and inactive = higher. Where a SMILES comes first, the peptide text is derived from it. The star is where a group is joined. Cbz = O=C(OCc1ccccc1)*; OBn = c1ccc(CO*)cc1
Metric: GI50

{"Compound": "O/N=C\\c1cc(O)c(O)c(/C=N/O)c1", "GI50": "25.2 µM (inactive)"}
{"Compound": "C/C(=N/NC(=S)N1CC2CCC(CC2)C1)c1cnccn1", "GI50": "< 0.01 µM (active)"}
{"Compound": "Nc1nncc2c1c(Br)cn2C1OC(CO)C(O)C1O (stereo unspecified)", "GI50": "31.7 µM (inactive)"}
{"Compound": "COC1/C=C/C(C)C(C(C)C(OC)C(C)CCC(=O)C(C)C(CC(=O)O)OC)OC(=O)/C=C/C=C(\\C)CC(OC)CC2=CC(=O)O[C@H](C2)C(C)C(OC)CC(OC)/C=C/C(C)C(OC)C1 (stereo partly specified)", "GI50": "0.299 µM (active)"}
{"Compound": "COC(=O)C(Cc1ccc(O)cc1)NC(=O)C(CC(=O)OCc1ccccc1)NC(=O)OCc1ccccc1 (stereo unspecified) (Cbz-Asp(OBn)-Tyr-OMe; configuration not given here)", "GI50": "20.7 µM (inactive)"}

Using the record for CC(=O)Oc1ccc(/C=C/C(=O)NCC(NC(=O)/C=C/c2ccc(OC(C)=O)c(OC(C)=O)c2)C(=O)O)cc1OC(C)=O (stereo unspecified) , report its GI50.
> 100 µM (inactive)

====

- Tested on: HOP-92
- Protocol text: NCI tumour cell line growth inhibition, 48 h
Activity calls are given as the source filed them. No stated cut-off is given here; in the data, active = GI50 up to about 1.1 µM and inactive = higher.
Metric: GI50

Example cases with answers are listed next.
{"Molecule": "CCN(C(=S)N[C@H](C(=O)N[C@@H](C)C(=O)OC)C(C)C)c1ccccc1", "GI50": "51.4 µM (inactive)"}
{"Molecule": "O=C(Nc1cccc2cnccc12)c1cc2c(cc1Cl)Sc1nccn1S2(=O)=O", "GI50": "21.4 µM (inactive)"}

// moving on: another record for GI50
Using the record for COc1cc(C=C2C(C)=NN(c3cccc(Cl)c3)C23SCC(=O)N3c2nc3ccccc3s2)ccc1O (stereo not drawn) , report its GI50.
18 µM (inactive)

====

Reported GI50 values for the following compounds.
- System: MOLT-4
- Protocol text: NCI tumour cell line growth inhibition, 48 h
The source made the active and inactive calls. No stated cut-off is given here; in the data, active = GI50 up to about 1.1 µM and inactive = higher.

Example cases with answers are listed next.
{"Given smiles": "O=C1/C(=C/c2cccc(Br)c2)CSC/C1=C\\c1cccc(Br)c1", "Measured target": "MOLT-4", "GI50": "1870 nM (inactive)"}
{"Given smiles": "CSC(=O)/C=C1\\SS/C(=C\\C(=O)SC)S1", "Measured target": "MOLT-4", "GI50": "1770 nM (inactive)"}

// moving on: another record for GI50
Using the record for COc1ccccc1C(=O)c1c(N2CCCCC2)c(=O)c1=O , report its GI50.
> 100000 nM (inactive)

====

- Test system: ACHN
- Protocol text: NCI tumour cell line growth inhibition, 48 h
The source made the active and inactive calls. No stated cut-off is given here; in the data, active = GI50 up to about 1.1 µM and inactive = higher.
Return exactly one item of 1.0 (active), 0.0 (inactive)

Use these answered entries as a reference point.
{"Compound": "COc1cc(-c2n[nH]cc2CCCC(=O)Nc2ccccc2[N+](=O)[O-])ccc1O", "Measured target": "ACHN", "Class label": 0.0}
{"Compound": "Cc1cc(=O)oc2c(C)c3oc(CBr)cc3cc12", "Measured target": "ACHN", "Class label": 0.0}

What is the recorded call for this compound in the test? CS(=O)(=O)CS(=O)(=O)OCCCl
0.0

What is the recorded call for this compound in the test? Cc1ccc(S(=O)(=O)OCCN(CCOS(=O)(=O)c2ccc(C)cc2)c2ccc(C=O)cc2)cc1
0.0

What is the recorded call for this compound in the test? COc1cc(/C=C/C(=O)C2(C(=O)/C=C/c3cc(OC)c(OC)c(OC)c3)CCCCC2)cc(OC)c1OC
0.0

What is the recorded call for this compound in the test? CCCc1n[nH]c(CCC(=O)N(Cc2ccccc2)Cc2ccccc2)c1CC
0.0

What is the recorded call for this compound in the test? NC1=CC(C(=O)c2ccncc2)c2nc3ccccc3nc21 (centres undefined)
0.0

What is the recorded call for this compound in the test? O/N=C\c1cc(O)c(O)c(/C=N/O)c1
0.0

What is the recorded call for this compound in the test? CC[C@]1(O)CC(OC2CC(N(C)C)C(O)C(C)O2)c2c(cc3c(c2O)C(=O)c2c(O)cccc2C3=O)[C@@H]1C(=O)OC (some centres undefined)
1.0

What is the recorded call for this compound in the test? Cc1[nH]c2ccccc2c1/C=N/c1ccc(/N=C/c2c(C)[nH]c3ccccc23)cc1
0.0

What is the recorded call for this compound in the test? COC(=O)C(Cc1ccc2c(c1)OCO2)(NC(=O)c1ccccc1)P(=O)(OC)OC (centres undefined)
0.0

What is the recorded call for this compound in the test? COc1ccc(CNC(=O)[C@H](Cc2ccc(O)cn2)NC(C)=O)cc1
0.0

What is the recorded call for this compound in the test? CN(C)c1n/c(=N/c2ccc3ccccc3c2)ss1
0.0

What is the recorded call for this compound in the test? CC(=O)c1c(O)c2c([nH]c1=O)CCCC2
0.0

What is the recorded call for this compound in the test? Cn1c(=O)oc2cc(C3CCC(=O)N3Cc3csc(-c4ccccc4)n3)ccc21 (centres undefined)
0.0

What is the recorded call for this compound in the test? CN(C)C1C(CO)OC(n2cnc3c(N)ncnc32)C1O (centres undefined)
0.0

What is the recorded call for this compound in the test? N/N=C(\CCN1CCCC1)CC(c1ccccc1)c1c(O)c2ccccc2oc1=O (centres undefined)
0.0

What is the recorded call for this compound in the test? CN(C)/N=C1\C=C2CC[C@H](O[Si](C)(C)C(C)(C)C)[C@@]2(C)CC1
0.0

What is the recorded call for this compound in the test? CCOC(=O)C(NC(=O)c1ccco1)(Nc1nc2ccc(OCC)cc2s1)C(F)(F)F (centres undefined)
0.0

====

- Tested on: M14
- Protocol text: NCI tumour cell line growth inhibition, 48 h
Active and inactive are the calls of the source. Rule as the data show it: active = GI50 up to about 1.1 µM and inactive = higher.
Return exactly one item of active, inactive

Use these answered entries as a reference point.
{"Compound": "COC(=O)c1cc(C#N)[nH]c1-c1ccc(Br)s1", "Class label": "inactive"}
{"Compound": "CC1=CC2C(O1)C1C(=O)C=CC(=O)C1=CC2[N+](=O)[O-] (stereo unspecified)", "Class label": "inactive"}
{"Compound": "Clc1nc2c(C#Cc3ccccc3)ncnc2n1C1CCCCO1 (stereo unspecified)", "Class label": "inactive"}
{"Compound": "CC1CN(c2cc3c(cc2F)c(=O)c(C(=O)O)cn3-c2ccc(N3CCN(C)CC3)cn2)CC(C)N1 (stereo unspecified)", "Class label": "inactive"}
{"Compound": "CC(=O)O[C@H]1CC[C@@]2(C)C(=CC[C@H]3C(CC#N)[C@@](C)(C#N)CCC32)C1 (stereo partly specified)", "Class label": "inactive"}

What is the recorded call for this compound in the test? O=c1c2cccnc2ncn1CCCN1CCOCC1
inactive

What is the recorded call for this compound in the test? COc1ccc2[nH]c3c(c2c1)CCc1ccccc1-3
inactive

What is the recorded call for this compound in the test? COc1cc(C2S/C(=C/c3ccccc3)C(=O)N2c2ccccc2Cl)cc(OC)c1OC (stereo unspecified)
inactive

What is the recorded call for this compound in the test? Cc1ccc(S(=O)(=O)NC(CCC(=O)NNc2ccccc2)C(=O)NNc2ccccc2)cc1 (stereo unspecified)
inactive

What is the recorded call for this compound in the test? COC1CC(n2cc(F)c(N)nc2=O)OC1CO (stereo unspecified)
inactive

What is the recorded call for this compound in the test? CN(C)c1ccc(/C=c2\c3cc([N+](=O)[O-])ccc3n3c2cc(-c2ccccc2)[n+]3C)cc1
active

What is the recorded call for this compound in the test? O=C1/C(=C\Oc2ccc(F)cc2)N2CCC1CC2
inactive

What is the recorded call for this compound in the test? COc1cc2c(cc1OC)CCc1cc(OC)c(OC)cc1CC2
inactive

====

- Test system: SF-295
- Protocol text: NCI tumour cell line growth inhibition, 48 h
Active and inactive are the calls of the source. Cut-off read from the data, not from the text of the source: active = GI50 up to about 1.1 µM and inactive = higher.
Metric: GI50

{"Compound": "COc1cc2c(cc1OC)CCc1cc(OC)c(OC)cc1CC2", "Measured target": "SF-295", "GI50": "> 100 µM (inactive)"}
{"Compound": "CCOC(=O)/C(=N\\Nc1ccc(-n2c(C)nc3ccccc3c2=O)cc1)C(C)=O", "Measured target": "SF-295", "GI50": "33 µM (inactive)"}
{"Compound": "COc1cc(C(c2c(O)c3ccccc3oc2=O)c2c(O)c3ccccc3oc2=O)cc(Br)c1O", "Measured target": "SF-295", "GI50": "21.1 µM (inactive)"}
{"Compound": "COc1ccc(/C(Cl)=C(\\C#N)c2ccc(OC)c(OC)c2)cc1OC", "Measured target": "SF-295", "GI50": "61.5 µM (inactive)"}
{"Compound": "COc1ccc(C(=O)/C=C/c2ccc(OCC(=O)O)cc2)cc1", "Measured target": "SF-295", "GI50": "> 100 µM (inactive)"}

Using the record for Cc1cccc(C(C)(C)C)c1NC(=O)CCc1n[nH]c(=S)o1 , report its GI50.
> 100 µM (inactive)

Using the record for COC(=O)C1C(O)C(C)C(O)C(C)(O)C=C(C)C2=C3C(=C(C)C(=O)c4c(O)c(c(C)c(OC(C)=O)c43)NC(=O)C(C)=C/C=C\C(C)(O)C(O)C(C)C1O)OCO2 (configuration not stated) , report its GI50.
> 100 µM (inactive)
